Origin of measurements: patent US8420657B2

Can you tell me pIC50 for the items I'm about to list?
# TEST TARGET: GST-JAK2(808-1132) (Homo sapiens)
# Construct: GST-JAK2(808-1132); purchased Invitrogen (Carlsbad, USA) #4288
# Sequence (O60674 808-1132): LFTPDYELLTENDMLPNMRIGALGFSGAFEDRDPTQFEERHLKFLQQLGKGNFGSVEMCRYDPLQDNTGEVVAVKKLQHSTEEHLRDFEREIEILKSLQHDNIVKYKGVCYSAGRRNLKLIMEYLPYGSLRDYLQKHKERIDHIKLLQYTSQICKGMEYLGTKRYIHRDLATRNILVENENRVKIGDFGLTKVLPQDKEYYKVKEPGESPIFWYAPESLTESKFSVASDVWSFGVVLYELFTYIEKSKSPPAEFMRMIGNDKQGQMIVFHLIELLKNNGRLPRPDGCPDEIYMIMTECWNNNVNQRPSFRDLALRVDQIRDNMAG
# ASSAY OVERVIEW: JAK2 kinase assay (Caliper mobility shift, LabChip 3000)
# Type: biochemical
pIC50: −log10 of the molar value.

Suppose we examine the compound Fc1cc(-n2ccc3cnc(Nc4ccc(C5CNCCO5)cc4)nc32)cc(F)c1CN1CCOCC1 (racemic) ; what pIC50 value has been reported?
≥ 8.52

Reported pIC50 for `Cc1ccc(Nc2ncc3ccn(-c4cc(F)c(CN5CCCC5=O)c(F)c4)c3n2)cc1CN1CCNCC1` : what is it?
≥ 8.52

Bench note: what pIC50 did `OCCN1CCN(c2ccc(Nc3ncc4ccn(-c5cc(F)c(CN6CCOCC6)c(F)c5)c4n3)cn2)CC1` show?
> 8.52

Bench note: what pIC50 did `Fc1cc(-n2ccc3cnc(Nc4ccnc(OC5CCOCC5)c4)nc32)cc(F)c1CN1CCOCC1` show?
≥ 8.52

// returns reported pIC50 for input `Cc1ccc(Nc2ncc3ccn(-c4cc(F)c(CN5CCS(=O)(=O)CC5)c(F)c4)c3n2)cc1C`
> 8.52

I am curious: what pIC50 value has been reported for `CN1CCN(Cc2cc(Nc3ncc4ccn(-c5cc(F)c(CN6CCOCC6)c(F)c5)c4n3)ccc2Cl)CC1` ?
≥ 8.52
